# Read-out: Heat shock 70 kDa protein 1 (HSPA1A), gene 3303
# Test Description: LTEA_HepaRG_HSPA1A: Life Technologies and Expression Analysis (LTEA) Assay for Heat shock 70 kDa protein 1 (HSPA1A) using HepaRG (AID 2283502)
# Assay Conditions: mRNA level, 48 h; actives raise or lower the signal
Active and inactive are the calls of the source. The calls were made as follows: active = hit-call score of the fitted dose curve at least 0.9, where 1 is the maximum; inactive = score below 0.9.
In this exercise, the only acceptable responses are true (1) for active, false (0) for inactive

>>> class_assignment("C[C@]12CC[C@@H]3c4ccc(O)cc4CC[C@H]3[C@@H]1CC[C@H]2O")
"true (1)"
>>> class_assignment("O=C=NCCCCCCN=C=O")
"false (0)"
>>> class_assignment("c1ccc2n[nH]nc2c1")
"false (0)"
>>> class_assignment("CN(C)C(=O)C1(N2CCCCC2)CCN(CC[C@@]2(c3ccc(Cl)c(Cl)c3)CN(C(=O)c3ccccc3)CCO2)CC1")
"true (1)"
>>> class_assignment("O=c1ccc2ccccc2o1")
"false (0)"

Which outcome was assigned to CC[C@H](NC(=O)c1cc(F)ccc1NS(=O)(=O)c1cccc2cccnc12)c1ccccc1 in this test?
true (1)

Which outcome was assigned to O=c1[nH]sc2ccccc12 in this test?
false (0)

Which outcome was assigned to O=C(O)Cc1cc(I)c(Oc2ccc(O)c(I)c2)c(I)c1 in this test?
true (1)

Which outcome was assigned to c1ccc2ccccc2c1 in this test?
false (0)

Which outcome was assigned to CCCCCCCCCC(=O)O in this test?
false (0)

Which outcome was assigned to Clc1ccccc1C(c1ccccc1)(c1ccccc1)n1ccnc1 in this test?
false (0)

Which outcome was assigned to CN(C)c1ccc(C(=C2C=CC(=[N+](C)C)C=C2)c2ccc(N(C)C)cc2)cc1 in this test?
true (1)

###

# Target Entity: CDK2 (gene 1017) (UniProt P24941)
# Test Description: NVS_ENZ_hCDK2: NovaScreen (NVS) Enzymatic Assay for human Cyclin-Cependent Kinase 2 (CDK2) (AID 2283144)
Results filed as inconclusive are left out. Calls of active or inactive are those of the source. The calls were made as follows: active = hit-call score of the fitted dose curve at least 0.9, where 1 is the maximum; inconclusive = response in the unintended direction; inactive = score below 0.9.
In this exercise, the only acceptable responses are active, inactive

Answered cases to consult:
>>> class_assignment("COc1cc(C(=O)NC2CCN(C)CC2)ccc1Nc1ncc2c(n1)N(C1CCCC1)CC(F)(F)C(=O)N2C")
"inactive"
>>> class_assignment("CN1C(=O)N(c2ccccc2Br)Cc2cnc(Nc3ccc4c(c3)OCC(CO)O4)nc21 (stereo not given)")
"active"
>>> class_assignment("c1ccc2ccccc2c1")
"inactive"

Which outcome was assigned to Oc1ccc2ccccc2c1 in this test?
inactive

Which outcome was assigned to Clc1cc(Cl)c2c(c1)N=C1CCCCCN1C2 in this test?
inactive

###

# Read-out: CD40, CD40 (gene 958)
# Test Description: BSK_LPS_CD40: BioMAP Diversity Plus: LPS Assay for CD40 Biomarker Activity (AID 2283076)
# Assay Conditions: primary human HUVEC with PBMC; actives raise or lower the signal
# Protocol: BSK_LPS is a cell-based, multiplexed-readout assay that uses umbilical vein endothelium and peripheral blood mononuclear cells, a human vascular primary cell co-culture, with measurements taken at 24 hours after chemical dosing in a 96-well plate.BSK_LPS_CD40 is an assay component measured in the BSK_LPS assay. It measures CD40 antibody related to regulation of gene expression using ELISA technology.Data from the assay component BSK_LPS_CD40 was analyzed into 1 assay endpoint. […]
Activity calls are given as the source filed them. How the source made its calls: active means hit-call score of the fitted dose curve at least 0.9, where 1 is the maximum; inactive means score below 0.9.
In this exercise, the only acceptable responses are YES for active, NO for inactive

Answered cases to consult:
>>> class_assignment("O=C(O)Cn1c(=O)n(Cc2ccc(Br)cc2F)c(=O)c2ccc(Cl)cc21")
"NO"
>>> class_assignment("O=c1c(-c2ccc(O)cc2)coc2cc(O)cc(O)c12")
"YES"
>>> class_assignment("Cc1ccc2oc(CN(Cc3ccccc3)C(=O)Nc3c(F)cc(F)cc3F)c(-c3ccc(Cl)cc3)c2c1")
"NO"
>>> class_assignment("C[C@]12CC[C@@H]3c4ccc(O)cc4CC[C@H]3[C@@H]1CC[C@H]2O")
"NO"
>>> class_assignment("CCCCCCCCCCCC[N+](C)(C)C")
"YES"

Which outcome was assigned to O=C=NCCCCCCN=C=O in this test?
NO

FYI, the data here is from PubChem BioAssay (EPA / NIEHS).
